Test system Plasminogen (Homo sapiens, UniProt P00747), Ki listed for each of the molecules.
Numbered stars: 1 amine (or outer) side, 2 acyl side, 3 side chain; on linkers, the order of the positions; unused ones are H or OH. Bridge positions count the residues as written; N and C are the ends. Peptide text beside a SMILES is read from it. TBMB = c1c(C[*:1])cc(C[*:3])cc1C[*:2]

molecule | assaySystem | Ki
CSCC[C@H](NC(=O)[C@H](CS)NC(=O)CN)C(=O)NCC(=O)N[C@@H](CCCNC(=N)N)C(=O)N1CCC[C@H]1C(=O)N[C@@H](CS)C(=O)N1CCC[C@H]1C(=O)N[C@H](C(=O)N[C@@H](CO)C(=O)N[C@@H](Cc1ccc(O)cc1)C(=O)N[C@@H](CS)C(=O)N[C@@H](Cc1ccccc1)C(=O)O)C(C)C (H-GCMGRPCPVSYCF-OH) | Plasminogen (Homo sapiens, UniProt P00747) | > 120 µM

Now consider the entry below.
Prompt: Please look at this molecule and report its Ki: C[C@@H]1NC(=O)[C@@H]2CCCN2C(=O)[C@@H]2CCCN2C(=O)[C@@H]2CSCc3cc(cc(c3)CSC[C@H](NC(=O)[C@@H](N)CO)C(=O)NCC(=O)NCC(=O)N[C@@H](CCCNC(=N)N)C(=O)N3CCC[C@H]3C(=O)N2)CSC[C@@H](C(=O)N[C@@H](CCCCN)C(=O)O)NC(=O)[C@H](Cc2ccc(O)cc2)NC1=O (H-SCGGRPCPPAYCK-OH; linker 2-7-12 via TBMB)
Completion: 8.3 µM
